Test system: NCI-H522 lung
test-method-notes: NCI-60 one-dose screen, 48 h (100 = growth as untreated, 0 = no growth, -100 = all killed)
measurement-parameters: 10 µM unless noted
About 83,000 compounds went through this panel and 20% of them were active in at least one assay; those are over-represented in the sample as a whole. Active and inactive are the calls of the source. Rule for the calls: active = growth percent below 10; inactive = the rest.

# compound, growth
rows = [
    ("Cc1ccc(N(C(=O)CCc2c[nH]c3ccccc23)[C@H](C(=O)Nc2ccc(Cl)cc2)c2cccc([N+](=O)[O-])c2)cc1", "64.2% (inactive)"),
    ("COc1cc(/C=N/NC(=O)Cn2c(C(C)C)nc3ccccc32)ccc1O", "92.4% (inactive)"),
    ("COc1cccc(-c2nn(-c3ccccc3)cc2-c2ccnc(NCCCNC(=O)c3cccc(C(F)(F)F)c3)c2)c1", "0.301% (active)"),
    ("COc1ccc(-c2nc3c(c(=O)n2C(C)=O)C(c2ccc(Cl)cc2)c2sc4c(Cl)cccc4c2O3)cc1 (stereo not drawn)", "-45.6% (active)"),
    ("N=c1sc(Cc2ccc(Cl)cc2)cn1CC(=O)c1ccc(F)cc1", "63.5% (inactive)"),
    ("O=[N+]([O-])c1ccc(-c2cc(-c3ccc(Nc4nc(Nc5ccc(Cl)cc5)nc(Nc5ccc(Cl)cc5)n4)cc3)no2)cc1", "80.9% (inactive)"),
    ("CCCCCCCCCCCCCCCCCCOc1ccc(CC(=O)OCC[N+]2(C)CCCC2)cc1", "96.8% (inactive)"),
    ("Cc1ccc(C(=O)COc2cccc(/C=C3\\Oc4ccccc4C3=O)c2)cc1", "78.2% (inactive)"),
    ("COc1ccc(C2=NN(C(=O)c3cc(OC)c(OC)c(OC)c3)C(c3ccc(Cl)cc3)C2)cc1OC (stereo not drawn)", "4.89% (active)"),
    ("COc1ccc(-c2nc(SC(C)C)nc(NNC(N)=S)c2C#N)cc1", "12.8% (inactive)"),
    ("COc1nc(N(C)O)nc(N(C)O)n1", "56.5% (inactive)"),
    ("Cc1cccc(NC(=O)CSc2nc3ccccc3[nH]2)c1", "90.9% (inactive)"),
    ("COc1cc(C(=O)c2cc(C)c3[nH]c4ccc(Cl)cc4c3c2C)cc(OC)c1OC", "35.5% (inactive)"),
    ("O=C(Nc1cccc(Oc2nnc(Cl)c3ccccc23)c1)Nc1ccc(Cl)c(C(F)(F)F)c1", "-67.5% (active)"),
    ("Cc1ccc(Nc2ccc(Nc3ccc(C)cc3)c3c2C(=O)c2cccc(O)c2C3=O)cc1", "90.6% (inactive)"),
    ("CCOC(=O)c1c2c(n3ccc(NC(=O)OC(C)(C)C)cc13)C(=O)c1ncccc1C2=O", "-56.1% (active)"),
    ("Cc1cc(N2CCCC2)nc(NCc2cc(Nc3ccnc4cc(Cl)ccc34)ccc2F)n1", "-50.3% (active)"),
    ("COc1cc(C2CC(=O)Nc3c2c(C)nn3-c2nc3ccccc3[nH]2)c(OC)c(OC)c1OC (stereo not drawn)", "33.3% (inactive)"),
]
